The measurements presented in this section are drawn from BigSolDB 2.1.

Settings: in n-propanol, 288.05 K
readout: solubility (mole fraction)

The measured solubility (mole fraction) associated with `CO/N=C(\C(=O)O)c1csc(N)n1` reads 2.49e-05

* * *

Conditions: in ethylene glycol, 298.26 K
readout: solubility (mole fraction)
Give only the figure.

The measured solubility (mole fraction) associated with `CO/N=C(\C(=O)O)c1csc(N)n1` reads 0.002

* * *

Conditions: in water, 303.22 K
readout: solubility (mole fraction)
Give only the figure.

The measured solubility (mole fraction) associated with `CO/N=C(\C(=O)O)c1csc(N)n1` reads 0.000637

* * *

Settings: in n-propanol, 293.09 K
readout: solubility (mole fraction)

The measured solubility (mole fraction) associated with `CO/N=C(\C(=O)O)c1csc(N)n1` reads 3.1e-05
